Numbers sourced from patent US20120015939A1.

# method.notes: clinical
# test.context: human, in vivo
measured.parameter: concentration at 2 weeks

>  <mol>
Clc1cccc(Cl)c1N=C1NCCN1

>  <measured.parameter>
concentration at 2 weeks

>  <result>
0.017 ng/mL

$$$$
